Values were extracted from patent US4670584A.

Test: Degree of decrease in blood glucose after intraduodenal administration with insulin in rats
Assay type: in vivo, rat (Male SD rats)
Conditions: male SD rats, 1.5 mg/10 body weight with insulin 1.25 U/10 g, 60 minutes, mean
quantity: Decrease in Blood Glucose (%)
Quick reminder: number only, in %, skip the unit.

- compound: "O=C(N[C@H](Cc1ccccc1)C(=O)O)C(F)=Cc1ccccc1 [Sample S-48, N-(α-fluorocinnamoyl)-D-phenylalanine]"
  reading: 72.9
- compound: "Cc1cccc(C=CC(=O)N[C@@H](Cc2ccccc2)C(=O)O)c1 [Sample S-41, N-(3-methylcinnamoyl)-L-phenylalanine]"
  reading: 35.3
- compound: "O=C(C=Cc1cccc(Cl)c1)N[C@@H](Cc1ccccc1)C(=O)O [Sample S-43, N-(3-chlorocinnamoyl)-L-phenylalanine]"
  reading: 46.9
- compound: "O=C(C=Cc1cccc2ccccc12)N[C@@H](Cc1ccccc1)C(=O)O [Sample S-45, N-(1-naphthylacryloyl)-L-phenylalanine]"
  reading: 35.4
- compound: "CCc1ccc(C=CC(=O)N[C@@H](Cc2ccccc2)C(=O)O)cc1 [Sample S-39, N-(4-ethylcinnamoyl)-L-phenylalanine]"
  reading: 32.5

As a next step, examine the compound that follows.
[in] So what's the measured Decrease in Blood Glucose for this one? O=C(C=Cc1cccc2ccccc12)N[C@H](Cc1ccccc1)C(=O)O [Sample S-46, N-(1-naphthylacryloyl)-D-phenylalanine]
[out] 28.8

###

Experiment: Toxicity studies of phenylalanine derivatives, oral, in female CD-1(ICR) mice
Conditions: mouse, in vivo, suspended in 0.5% CMC
Residues, ends and D or L forms follow the SMILES beside them. *: point of attachment. Cbz = O=C(OCc1ccccc1)*
quantity: LD50

// solved cases for LD50 follow
- compound: "O=C(COc1ccc(Cl)cc1)N[C@@H](Cc1ccccc1)C(=O)O"
  quantity: "LD50"
  reading: "> 3500 mg/kg"
- compound: "O=C(N[C@@H](Cc1ccccc1)C(=O)O)OCc1ccccc1"
  quantity: "LD50"
  reading: "> 2750 mg/kg"
- compound: "O=C(N[C@@H](Cc1ccccc1)C(=O)N[C@@H](Cc1ccc(O)cc1)C(=O)O)OCc1ccccc1 [Sample S-10] (Cbz-Phe-Tyr-OH)"
  quantity: "LD50"
  reading: "> 3000 mg/kg"
- compound: "COc1ccc(COC(=O)N[C@@H](Cc2ccccc2)C(=O)O)cc1"
  quantity: "LD50"
  reading: "750 mg/kg"
- compound: "O=C(COc1ccccc1)N[C@@H](Cc1ccccc1)C(=O)O"
  quantity: "LD50"
  reading: "> 4000 mg/kg"
- compound: "O=C(N[C@@H](Cc1ccccc1)C(=O)N[C@@H](Cc1ccccc1)C(=O)O)OCc1ccccc1 [Sample S-7] (Cbz-Phe-Phe-OH)"
  quantity: "LD50"
  reading: "> 3000 mg/kg"

As a next step, examine the compound that follows.
[in] So what's the measured LD50 for this one? O=C(COc1cccc2ccccc12)N[C@@H](Cc1ccccc1)C(=O)O [Sample S-11, N-[(1-naphthoxy)acetyl]-L-phenylalanine]
[out] > 4000 mg/kg

###

Listed compounds paired with reported Decrease in Blood Glucose
Assay: Degree of decrease in blood glucose after intraduodenal administration with insulin in rats
Format: in vivo, rat (Male SD rats)
Conditions: male SD rats, 1.5 mg/10 body weight with insulin 1.25 U/10 g, 60 minutes, mean

// solved cases for Decrease in Blood Glucose follow
- mol smiles: "Cc1cccc(C=CC(=O)N[C@H](Cc2ccccc2)C(=O)O)c1"
  Decrease in Blood Glucose: "40.7%"
- mol smiles: "O=C(C=Cc1cccc(Cl)c1)N[C@H](Cc1ccccc1)C(=O)O"
  Decrease in Blood Glucose: "49.3%"
- mol smiles: "CCc1ccc(C=CC(=O)N[C@H](Cc2ccccc2)C(=O)O)cc1"
  Decrease in Blood Glucose: "28.1%"
- mol smiles: "O=C(C=Cc1ccc2ccccc2c1)N[C@@H](Cc1ccccc1)C(=O)O"
  Decrease in Blood Glucose: "40.2%"

[in] So what's the measured Decrease in Blood Glucose for this one? "Cc1ccc(C=CC(=O)N[C@H](Cc2ccccc2)C(=O)O)cc1"
[out] 41.0%

[in] So what's the measured Decrease in Blood Glucose for this one? "O=C(N[C@@H](Cc1ccccc1)C(=O)O)C(Cl)=Cc1ccccc1"
[out] 49.1%

[in] So what's the measured Decrease in Blood Glucose for this one? "O=C(C=Cc1ccc2ccccc2c1)N[C@H](Cc1ccccc1)C(=O)O"
[out] 24.7%

[in] So what's the measured Decrease in Blood Glucose for this one? "O=C(N[C@H](Cc1ccccc1)C(=O)O)C(Cl)=Cc1ccccc1"
[out] 74.9%
